src = paper PMC5540273

- System: TSSK1B
- CONDITION SET: concentration: 1 μM, replicates: in singlicate; n = 1;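 also: KINOMEscan kinase panel screen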
What %Inh was measured for each of the following?
Record the value in %, omitting the unit from your answer.

Query: %Inh; subject: COc1ccc(Nc2nccc(N3CCC(NC(=O)C(C)c4ccc(Cl)cc4)C3)n2)cc1 (stereo not shown)
1

Recorded %Inh of `Cn1cnc2c(N)ncnc21` , please.
0

Endpoint output: %Inh of `COc1ccc(Nc2nccc(NCCNC(=O)Nc3cc(C)ccc3C)n2)cc1` . Value?
0

Can you look up the measured %Inh of COc1ccc(Nc2nccc(N3CCC(NC(=O)C(C)c4ccc(Cl)cc4)CC3)n2)cc1 (stereo not shown) for me?
0

Name the recorded %Inh for `COc1ccc(-c2coc3ccc(-c4nnc(C)o4)cc23)cc1` .
0

Fill in: %Inh of `CC(C)c1cc(-c2ccc3c(N)n[nH]c3c2)nc(N)n1` is ___
6

Please give the measured %Inh for this molecule: `Cc1ccc(-c2nc(Nc3ccncc3)c3ccccc3n2)s1`
15

May I ask what %Inh has been recorded for `Fc1ccc(-c2nn3cccc(F)c3c2-c2ccncc2)cc1` ?
0

What measured %Inh goes with `CNc1nc(-c2ccc3c(N)n[nH]c3c2)cc(N2C[C@@H](C(=O)NC3CCCCC3)OC[C@H]2C)n1` ?
0

Reported %Inh, molecule `O=C(Nc1n[nH]c2nc(-c3cccs3)c(Br)cc12)C1CC1` : ____
0

---

- Tested on: EGFR
- CONDITION SET: concentration: 1 μM, replicates: in singlicate; n = 1
READOUT: %Inh (%)
Field: numeric (%). Do not append units.

Item COC(=O)C(NC(=O)NC1CCN(c2ccnc(Nc3ccc(F)cc3)n2)C1)c1ccccc1 (stereo not drawn) has what recorded %Inh?
23

Please look up its %Inh: `Cc1ccc(NC(=O)Nc2ccc(Cl)cc2)cc1-c1ccc(C(=O)Nc2ccncc2)cc1`
24

Item `Cn1cnc2c(N)ncnc21` has what recorded %Inh?
13

---

- System: CHEK1
- CONDITION SET: concentration: 1 μM, replicates: in singlicate; n = 1
Binary call on %Inh: 1 from 1% upward, -1 beneath that.

For this compound, is measured %Inh 1% or higher? COc1ccc(Nc2nccc(N3CCC(NC(=O)c4cc5ccccc5s4)C3)n2)cc1 (stereo not drawn)
1

# check: %Inh of `Cc1cnc(N)c(/C=C/c2cncc(C(=O)NCCc3ccc(Cl)cc3Cl)c2)c1.Cl` is greater than or equal to 1%
-1

Tell me whether %Inh is at least 1% here: `O=C(Nc1n[nH]c2cc(-c3ccsc3)ccc12)C1CC1`
-1

Can `Cc1ccc(-c2nc(Nc3ccncc3)c3ccccc3n2)s1` be said to have %Inh at or above 1%?
1

Hello, I need to know if `Cc1ccc(NC(=O)Nc2ccc(Cl)cc2)cc1-c1ccc(C(=O)Nc2ccncc2)cc1` has measured %Inh not below 1%. Thanks!
1

For this compound, is measured %Inh 1% or higher? `CNC(=O)c1ccc(C)c(-n2c(C)cc(OCc3ccc(F)cc3F)c(Br)c2=O)c1`
-1

Evaluate `CC(=O)c1c(C)c2cnc(Nc3ccc(N4CCNCC4)cn3)nc2n(C2CCCC2)c1=O` : %Inh at minimum 1%?
-1

hey, is %Inh for this one >= 1%? `O=C1NC(=O)C(c2ccc(Cl)cc2)=C1Nc1cccc(Cl)c1`
-1

---

- Test system: ERK3
- Construct: gene MAPK6
- CONDITION SET: concentration: 1 μM, replicates: in singlicate; n = 1
Assign %Inh to each entry below.
Respond numerically; units are % and should not be typed.

Reported %Inh, compound `Cc1ccc(NC(=O)Nc2ccc(Cl)cc2)cc1-c1ccc(C(=O)Nc2ccncc2)cc1` : ____
15

Data request, read-out %Inh, for `Cc1cccc2c(-c3ccncn3)c(-c3ccc(F)cc3)nn12`
0

Give its %Inh value. Item: `Cc1c(Cn2c3ccccc3n3c(=O)cc(N4CCOCC4)nc23)cccc1C(F)(F)F`
0

Would you kindly share the measured %Inh for `Cn1cnc2c(N)ncnc21` ?
0

Item under review: `O=C1NC(=O)C(c2ccc(Cl)cc2)=C1Nc1cccc(Cl)c1` . Reported %Inh?
0

---

- Test system: TEC
- CONDITION SET: concentration: 1 μM, replicates: in singlicate; n = 1
What %Inh was measured for each of the following?
All answers are understood in %, so give the number only.

Under TEC: %Inh value of Fc1ccc(-c2nc[nH]c2-c2ccncc2)cc1 [SB-217360] ?
0

Missing value: %Inh, TEC, entry COc1ccc(Nc2nccc(N3CCC(NC(=O)c4cc5ccccc5s4)C3)n2)cc1 (stereo not shown) [GSK1379738] . Fill in?
12

Identify the measured %Inh of CNc1nc(-c2ccc3c(N)n[nH]c3c2)cc(N2C[C@@H](C(=O)NC3CCCCC3)OC[C@H]2C)n1 [GSK2375584] for TEC.
12

Write down the reported %Inh of Cl.Cl.Cl.N#Cc1ccc(CCNc2nccc(-c3cccc(CN4CCNCC4)c3)n2)cc1 [GSK2137462] , test system: TEC.
0

Hi! What's the reported %Inh for c1ccc(-c2ccnc3[nH]ccc23)cc1 [SB-693578] on TEC?
5

Give %Inh (TEC) of the following compound: CS(=O)(=O)CCNCc1nc(-c2ccc3ncnc(Nc4ccc5c(cnn5Cc5ccccc5)c4)c3c2)cs1.Cl.Cl [GW569716]
0

Form field - read-out: %Inh; system: TEC; submitted item: COC(=O)c1cccc(NC(=O)NC2CCN(c3ccnc(Nc4ccc(OC)cc4)n3)C2)c1 (stereo not shown) [GSK1379746]
14

What measured %Inh is associated with COC(=O)C(NC(=O)NC1CCN(c2ccnc(Nc3ccc(F)cc3)n2)C1)c1ccccc1 (stereo not shown) [GSK1379712] on TEC?
11

Request - read-out %Inh | tested on TEC | compound O=C1NC(=O)C(c2ccc(Cl)cc2)=C1Nc1cccc(Cl)c1 [SB-317651]
0

# returns recorded %Inh (system: TEC) for CCn1c(-c2ccccc2)nc2cnccc21 [SB-733416]
0

Lab note: need %Inh with TEC for entry Cc1ccc(NC(=O)Nc2ccccc2F)cc1-c1ccc(C(=O)Nc2ccncc2)cc1 [GSK1398477] , please look it up.
24

Request - read-out %Inh | tested on TEC | compound O=c1cc(N2CCOCC2)nc2n(Cc3cccc(Cl)c3Cl)c3ccccc3n12 [GSK2299009]
20

Request: %Inh, test system TEC, entry CC(C)c1cc(-c2ccc3c(N)n[nH]c3c2)nc(N)n1 [GSK2250882]
0

Write down the reported %Inh of COc1ccc(Nc2nccc(-c3ccc(NC(=O)c4cc5cc(F)ccc5[nH]4)cc3)n2)cc1 [GSK1229496] , test system: TEC.
0

Lab request: please report %Inh under test system TEC for COc1ccc(Nc2nccc(NCCNC(=O)Nc3cc(C)ccc3C)n2)cc1 [GSK1379899]
16

Recorded %Inh for Fc1ccc(-c2nc3n(c2-c2ccncc2)CCS3)cc1 [GI98581] with TEC, please?
1

Tell me reported %Inh for COC(=O)c1cccc(NC(=O)NC2CCN(c3ccnc(Nc4ccc(F)cc4)n3)C2)c1 (stereo not shown) [GSK1379725] , tested with TEC.
0

Form entry - test system: TEC; read-out: %Inh; compound: `CCc1ccc(-c2ccc3c(c2)-c2n[nH]cc2S(=O)(=O)N3C)cc1`
0

What reported %Inh corresponds to Nc1cccc(-c2ccc3c(N)n[nH]c3c2)n1 [GSK2192730] on TEC?
0

---

For each record, write down the corresponding %Inh.
- Tested on: ITK
- CONDITION SET: concentration: 1 μM, replicates: in singlicate; n = 1
// unit must come after the numeric part

Please give the measured %Inh for this compound: COc1ccc(Nc2nccc(N3CCC(NC(=O)C(C)c4ccc(Cl)cc4)C3)n2)cc1 (stereo not drawn)
14%

Need %Inh, item `CC(=O)c1c(C)c2cnc(Nc3ccn(C)n3)nc2n(C2CCCC2)c1=O`
0%

Need %Inh of `Cc1ccc(NC(=O)Nc2ccc(Cl)c(C(F)(F)F)c2)cc1-c1ccc(C(=O)Nc2ccncc2)cc1` , thanks.
18%

---

- Test system: TESK1
- CONDITION SET: concentration: 1 μM, replicates: in singlicate; n = 1
Exercise: for every item that follows, state its recorded %Inh.
Give the quantity in %, number only.

Report %Inh for `FC(F)(F)c1ccccc1-c1cc(-c2c[nH]nc2-c2ccccn2)ccn1` tested on TESK1.
14

What is its %Inh for TESK1? Entry: `COc1ccc(CSc2nnc(-c3ccc4c(c3)CCO4)o2)cc1`
0

Short answer please: %Inh, TESK1, entry `Cc1ccc(NC(=O)Nc2ccccc2)cc1-c1ccc(C(=O)Nc2ccncc2)cc1`
2

Enter reported %Inh observed with TESK1 for COc1ccc(Nc2nccc(N3CCC(NC(=O)c4cc5ccccc5s4)C3)n2)cc1 (stereo not drawn)
30

Return %Inh measured with TESK1 given this compound: `Cl.Cl.Cl.N#Cc1ccc(CCNc2nccc(-c3cccc(CN4CCNCC4)c3)n2)cc1`
11

Request - read-out %Inh | tested on TESK1 | compound `CCCCc1nn2ncccc2c1-c1ccnc(NC2CC2)n1`
13

Give recorded %Inh with TESK1 for the following compound: COC(=O)C(Cc1ccccc1)NC(=O)NC1CCN(c2ccnc(Nc3ccc(F)cc3)n2)C1 (stereo not drawn)
16

Lab note: need %Inh for `COc1ccc2cc(-c3nc(-c4ccccc4C(C)C)[nH]c3-c3ccncc3)ccc2c1` on TESK1, anyone have it?
32

What reported %Inh corresponds to `CS(=O)(=O)CCNCc1nc(-c2ccc3ncnc(Nc4ccc(OCc5ccccc5)c(Cl)c4)c3c2)cs1.Cl` on TESK1?
19

Provide the documented %Inh with TESK1 as the system for `O=C(Nc1n[nH]c2cc(-c3ccsc3)ccc12)C1CC1`
9

Notebook: pull reported %Inh for TESK1, entry `O=C1NC(=O)C(c2ccc(Cl)cc2)=C1Nc1ccc(O)cc1`
12

Provide the documented %Inh with TESK1 as the system for `O=C(Nc1n[nH]c2nc(-c3cccs3)c(Br)cc12)C1CCCC1`
25

Given the entry `COc1ccc(-c2coc3ccc(-c4nnc(C)o4)cc23)cc1` , what %Inh was observed with TESK1?
8

Query %Inh on TESK1 for `CC(=O)c1c(C)c2cnc(Nc3ccn(C)n3)nc2n(C2CCCC2)c1=O`
4

Which measured %Inh belongs to `Cc1ccccc1-c1cc(-c2c[nH]nc2-c2ccccn2)ccn1` , tested on TESK1?
24

// fetch TESK1 %Inh for `COc1ccc(Nc2nccc(-c3ccc(NC(=O)c4cc5cc(F)ccc5[nH]4)cc3)n2)cc1`
7

Please provide the recorded %Inh for `CS(=O)(=O)Cc1ccc(Nc2nccc(-c3c(-c4cccc(NC(=O)C5CCCCC5)c4)nn4ncccc34)n2)cc1` , tested on TESK1.
10

Can you look up %Inh on TESK1 for `CNc1cc(-c2ccc3c(N)n[nH]c3c2)nc(N)n1` ?
0
